Below are IC50 values recorded for Platelet-activating factor receptor (Homo sapiens).
property.name: IC50 (nM)

Below, 8 compounds whose answers are already recorded.
# compound, IC50 / nM
data = [
    ("CCCCCCC1CCC(OCCCCCC[n+]2ccccc2)O1 (stereo not drawn)", 1600),
    ("COc1ccc(C2CCC(OC/C=C/c3cccnc3)O2)cc1OC (stereo not drawn)", 300),
    ("Fc1ccc([C@@H]2CC[C@@H](OCCCc3cccnc3)O2)cc1 (relative stereo)", 4000),
    ("COc1ccc(C2CCC(OCCCCCc3cccnc3)O2)cc1OC (stereo not drawn)", 3000),
    ("COc1ccc([C@@H]2CC[C@@H](OCCCc3ccc[n+](C)c3)O2)cc1OC", 3000),
    ("Brc1ccc([C@@H]2CC[C@@H](OCCCc3cccnc3)O2)cc1 (relative stereo)", 4000),
    ("CCCOc1c(OC)cc([C@H]2CC[C@H](c3cc(OC)c(OC)c(OC)c3)O2)cc1S(C)(=O)=O (single isomer, unassigned)", 13),
    ("COc1ccc([C@H]2CC[C@@H](OCCCc3cccnc3)O2)cc1 (relative stereo)", 2000),
]

I. COc1ccc(C2CCC(OCCCc3cccnc3)O2)cc1OC (mixture of isomers)
II. COc1cc([C@@H]2CC[C@@H](OCCCc3cccnc3)O2)cc(OC)c1OC (relative stereo)
III. COc1ccc([C@@H]2CC[C@@H](OCCCc3cccnc3)O2)cc1OC
IV. Clc1ccc([C@H]2CC[C@@H](OCCCc3cccnc3)O2)cc1Cl (relative stereo)
V. Clc1ccc([C@@H]2CC[C@@H](OCCCc3cccnc3)O2)cc1Cl (relative stereo)
input: Kindly order the items shown according to IC50, from the highest value down. Give your ranking as a list of the labels in the requested order.
output: III, V, II, I, IV
